Some binders, each annotated with its measured Kd.
# TESTED ON: T1, soluble human ASGR-1 carbohydrate binding domain (CBD; amino acid residues 154-281; N-terminal 6xHis tag) (human, UniProt P07306 154-281)
# T1 construct: also called ASGR-1 CBD
# T1 sequence: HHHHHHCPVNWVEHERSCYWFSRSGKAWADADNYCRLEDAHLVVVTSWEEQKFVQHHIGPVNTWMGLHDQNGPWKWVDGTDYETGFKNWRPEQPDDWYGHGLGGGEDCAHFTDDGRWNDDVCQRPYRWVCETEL
# ASSAY TEXT: Octet BLI, mAb on AR2G tips, 1:1 fit
# Source text: To quantitate the binding affinity of specific antibodies for ASGR-1 (either purified from hybridoma supernatants or made recombinantly), association and dissociation rates can be measured using a ForteBio Octet instrument. […] Association and dissociation times were chosen to ensure that curvature was present during association curves and measured dissociation levels dropped at least 5% from starting levels. […]

BINDER	Kd / nM
191G1 (antibody, V domains shown, mAb) VH: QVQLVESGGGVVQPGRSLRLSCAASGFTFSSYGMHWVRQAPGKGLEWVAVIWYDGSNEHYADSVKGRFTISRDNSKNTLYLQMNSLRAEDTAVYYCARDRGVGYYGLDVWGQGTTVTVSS VL: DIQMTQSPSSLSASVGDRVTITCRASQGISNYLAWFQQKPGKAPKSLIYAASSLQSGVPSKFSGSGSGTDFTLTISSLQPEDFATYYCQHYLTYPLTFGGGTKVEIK	2.4
197G3 (antibody, V domains shown, mAb) VH: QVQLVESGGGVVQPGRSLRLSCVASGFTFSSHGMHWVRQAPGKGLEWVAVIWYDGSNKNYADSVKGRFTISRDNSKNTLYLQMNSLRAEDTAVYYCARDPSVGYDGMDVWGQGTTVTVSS VL: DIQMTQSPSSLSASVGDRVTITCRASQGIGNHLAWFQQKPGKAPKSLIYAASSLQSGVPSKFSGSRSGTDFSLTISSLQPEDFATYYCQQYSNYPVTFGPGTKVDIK	0.8
72G9 (antibody, V domains shown, mAb) VH: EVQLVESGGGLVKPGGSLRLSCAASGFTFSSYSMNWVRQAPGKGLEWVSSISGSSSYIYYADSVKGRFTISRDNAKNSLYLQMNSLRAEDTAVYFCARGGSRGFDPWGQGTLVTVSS VL: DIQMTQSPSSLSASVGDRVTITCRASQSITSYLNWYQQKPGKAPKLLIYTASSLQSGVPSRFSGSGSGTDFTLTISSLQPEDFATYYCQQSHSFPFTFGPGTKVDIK	0.5
